src = paper PMC4072508

SYSTEM_UNDER_TEST: T1, Bfl-1, Q16548
T1 chain: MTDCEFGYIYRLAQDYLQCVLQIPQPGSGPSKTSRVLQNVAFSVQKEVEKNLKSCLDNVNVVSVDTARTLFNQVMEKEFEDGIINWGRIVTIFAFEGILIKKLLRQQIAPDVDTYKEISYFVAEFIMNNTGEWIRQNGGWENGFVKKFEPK
PROTOCOL_DESCRIPTION: peptide SPOT array, c-Myc-tagged receptor at 1 uM or 100 nM, anti-c-Myc-Cy3
MEASUREMENT_TYPE: SPOT signal as a fraction of Bim BH3's signal on the same receptor and array

1) SVGGRGISSKLDSLADELKFVPIIGI [SACS]: 0.02

A: FERVEQMCIQIKEVGDRVNYIKRSLQ [TRPM7]
B: KGTAVAICRRLGIFLDTEDVAGKAYT [ATP2A3]
C: MRSQLGKATALAIMGDKLWWADQVSE [LRP1]
Hey, quick one: sort these by SPOT signal as a fraction of Bim BH3's signal on the same receptor and array, low to high? Write the labels, ordered according to the request.
B, C, A
(B: 0.09, C: 0.14, A: 0.49)
